This collection of values is drawn from ChEMBL document CHEMBL2331253.

Tested on: Klebsiella pneumoniae
Experiment: Antibacterial activity against doxycycline, kanamycin-resistant Klebsiella pneumoniae ATCC 27799 assessed as growth inhibition by CLSI broth microdilution method
Type: functional
property label: MIC

Past entries and their recorded results:
>  <molecule>
CC1(O)CC(=O)c2c(cc3cc(O)c(-c4c(O)cc5cc6c(c(O)c5c4O)C(=O)CC(C)(O)C6)c(O)c3c2O)C1 (single isomer, unassigned; atropisomer) [FLAVOMANNIN A]

>  <test system>
Klebsiella pneumoniae

>  <test result>
> 64 µg/mL

$$$$
>  <molecule>
Cc1cc(O)c2c(c1)C(=O)c1cc(O)c(-c3c(O)cc4c(O)c5c(cc4c3O)CC(C)(O)CC5=O)c(O)c1C2=O (single isomer, unassigned; atropisomer) [Talaromannin B]

>  <test system>
Klebsiella pneumoniae

>  <test result>
> 64 µg/mL

$$$$

Consider now this further molecule.
(Q) Give the value of MIC reported for the following: Cc1cc(O)c2c(c1)C(=O)c1c(c(O)cc(O)c1-c1c(O)cc(O)c3c1C(=O)c1cc(C)cc(O)c1C3=O)C2=O [SKYRIN]
(A) > 64 µg/mL

* * *

Here the recorded MIC is given for each entry.
Test system: Enterococcus faecalis
Assay: Antibacterial activity against clarithromycin, erythromycin, moxifloxacin, telithromycin, vancomycin-resistant Enterococcus faecalis UW 2689 assessed as growth inhibition by CLSI broth microdilution method
Format: functional
Answer in µg/mL, number only, no unit symbol.

>  <compound>
Cc1cc(O)c2c(c1)C(=O)c1c(c(O)cc(O)c1-c1c(O)cc(O)c3c1C(=O)c1cc(C)cc(O)c1C3=O)C2=O [SKYRIN]

>  <test system>
Enterococcus faecalis

>  <output unit>
µg/mL

>  <MIC>
16

$$$$
>  <compound>
Cc1cc(O)c2c(c1)C(=O)c1cc(O)c(-c3c(O)cc4c(O)c5c(cc4c3O)CC(C)(O)CC5=O)c(O)c1C2=O (single isomer, unassigned; atropisomer) [Talaromannin B]

>  <test system>
Enterococcus faecalis

>  <output unit>
µg/mL

>  <MIC>
64

$$$$
>  <compound>
Cc1cc(O)c2c(c1)C(=O)c1cc(O)cc(O)c1C2=O [EMODIN]

>  <test system>
Enterococcus faecalis

>  <output unit>
µg/mL

>  <MIC>
16

$$$$
>  <compound>
COc1cc2cc3c(c(O)c2c(O)c1-c1c(O)cc2cc4c(c(O)c2c1O)C(=O)CC(C)(O)C4)C(=O)CC(C)(O)C3 (single isomer, unassigned; atropisomer) [FLAVOMANNIN C]

>  <test system>
Enterococcus faecalis

>  <output unit>
µg/mL

>  <MIC>
32

$$$$

(Q) # return recorded MIC for entry COc1cc2cc3c(c(O)c2c(O)c1-c1c(O)cc2c(O)c4c(cc2c1O)CC(C)(O)CC4=O)C(=O)CC(C)(O)C3 (single isomer, unassigned; atropisomer) [FLAVOMANNIN D]
(A) 32
